The entries below are paired with their reported IC50COX-1/IC50COX-2.
- test_target: cyclooxygenase-2 (COX-2 enzyme) (Homo sapiens, UniProt P35354)
- Construct: from tissue; host or cells: heparinised human whole blood from healthy volunteers, stimulated with LPS
- Sequence (P35354 18-604): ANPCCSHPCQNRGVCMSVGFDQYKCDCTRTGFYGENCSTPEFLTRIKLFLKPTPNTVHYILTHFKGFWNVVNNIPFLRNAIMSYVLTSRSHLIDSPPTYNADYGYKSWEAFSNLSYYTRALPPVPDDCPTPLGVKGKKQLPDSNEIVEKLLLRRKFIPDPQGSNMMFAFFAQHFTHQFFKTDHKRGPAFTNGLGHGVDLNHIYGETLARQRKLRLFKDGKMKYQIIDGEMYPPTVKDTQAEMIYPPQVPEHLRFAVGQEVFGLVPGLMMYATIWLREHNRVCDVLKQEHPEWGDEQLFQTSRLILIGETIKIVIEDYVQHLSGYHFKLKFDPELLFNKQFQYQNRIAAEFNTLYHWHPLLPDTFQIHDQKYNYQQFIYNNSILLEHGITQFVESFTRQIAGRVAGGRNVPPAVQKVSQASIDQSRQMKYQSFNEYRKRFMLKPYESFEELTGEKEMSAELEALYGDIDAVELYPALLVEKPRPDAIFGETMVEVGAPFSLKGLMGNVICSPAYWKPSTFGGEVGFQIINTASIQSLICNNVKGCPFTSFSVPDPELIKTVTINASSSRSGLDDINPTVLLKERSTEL
- measurement_protocol: Human whole blood in vitro activity assay, COX-2 (LPS-induced PGE2 by EIA)
- Assay type: cell-based
API doc: respond with a numeric literal and nothing else, no unit.

Worked cases, answers included:
INSERT INTO measurements (compound, test_target, measurement_name, observed) VALUES
  ('CS(=O)(=O)c1ccc(-n2cnc(Cl)c2-c2ccccc2)nc1', 'cyclooxygenase-2 (COX-2 enzyme) (Homo sapiens, UniProt P35354)', 'IC50COX-1/IC50COX-2', 44.0),
  ('COc1ccc(-c2c(Cl)ncn2-c2ccc(S(C)(=O)=O)nc2)cc1', 'cyclooxygenase-2 (COX-2 enzyme) (Homo sapiens, UniProt P35354)', 'IC50COX-1/IC50COX-2', 247.2),
  ('CS(=O)(=O)c1ccc(-n2cncc2-c2ccccc2)nc1', 'cyclooxygenase-2 (COX-2 enzyme) (Homo sapiens, UniProt P35354)', 'IC50COX-1/IC50COX-2', 11.6);

The compound identified as "CS(=O)(=O)c1ccc(-n2cnc(Cl)c2-c2ccc(Cl)cc2Cl)nc1" registered its IC50COX-1/IC50COX-2 at 26.2

====

- test_target: COX-1 (Canis lupus familiaris, UniProt Q8HZR1)
- Construct: in vitro activity study using beagle dog whole blood was conducted; from tissue; host or cells: beagle dog whole blood (platelets, by the same method as for human blood)
- Sequence (Q8HZR1 28-603): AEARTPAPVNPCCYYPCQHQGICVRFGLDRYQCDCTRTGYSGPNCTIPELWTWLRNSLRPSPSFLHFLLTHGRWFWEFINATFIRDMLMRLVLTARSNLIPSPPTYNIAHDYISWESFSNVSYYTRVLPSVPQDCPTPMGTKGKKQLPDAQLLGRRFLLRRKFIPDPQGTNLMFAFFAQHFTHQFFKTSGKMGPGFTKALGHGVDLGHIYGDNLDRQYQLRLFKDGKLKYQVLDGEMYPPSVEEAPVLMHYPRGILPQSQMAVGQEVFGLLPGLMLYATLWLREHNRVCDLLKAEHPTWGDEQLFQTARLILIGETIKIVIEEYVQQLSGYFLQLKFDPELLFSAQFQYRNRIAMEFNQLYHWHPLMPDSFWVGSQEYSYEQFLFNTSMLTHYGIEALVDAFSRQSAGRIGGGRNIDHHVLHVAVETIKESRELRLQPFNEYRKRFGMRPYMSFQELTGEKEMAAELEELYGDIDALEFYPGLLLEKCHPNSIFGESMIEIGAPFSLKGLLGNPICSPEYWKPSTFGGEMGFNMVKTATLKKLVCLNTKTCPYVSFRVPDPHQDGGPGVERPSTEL
- measurement_protocol: Dog whole blood in vitro activity assay, COX-1
- Type: cell-based, beagle dog
- experimental_setup: read-out: IC50 (μg/mL) COX-1 (converted)
I'd appreciate it if you marked entries Met when IC50 is lower than 60 µM and Not met when it is not.

Consider the following illustrative entries.
INSERT INTO measurements (compound, assigned_label) VALUES
  ('CS(=O)(=O)c1ccc(-n2cnc(Cl)c2-c2ccccc2)nc1 [Compound 1]', 'Not met'),
  ('CS(=O)(=O)c1ccc(-n2cnc(Cl)c2-c2ccc(F)cc2)nc1 [Compound 2]', 'Met'),
  ('COc1ccc(-c2c(Cl)ncn2-c2ccc(S(N)(=O)=O)cc2)cc1F [Cimicoxib, reference compound]', 'Met'),
  ('Cc1ccc(-c2c(Cl)ncn2-c2ccc(S(C)(=O)=O)cn2)cc1 [Compound 3]', 'Met');

// next entry
State whether 60 µM exceeds IC50 recorded for COc1ccc(-c2c(Cl)ncn2-c2ccc(S(C)(=O)=O)nc2)cc1 [Compound 9] .
Not met

All values here come from patent US9079876B2.
